Parameter shrunken log2 fold change: see the listing below.
- Tested on: Escherichia coli TOP10
- PROTOCOL DESCRIPTION: shrunken log2 fold change of peptide-encoding DNA abundance (4.5 h post-induction vs induction); higher = less antimicrobial activity (less host growth inhibition)
- CONDITION INFO: time post-induction: 4.5 h; library: site-saturation at positions 5, 18, 19, 20
ATTRIBUTE MEASURED: shrunken log2 fold change

>>> data_value("RRIRVRPPRLPRPRPRPIHWPRP")
-0.131
>>> data_value("RRIRSRPPRLPRPRPRPLLCPRP")
-0.039
>>> data_value("RRIRARPPRLPRPRPRPKQCPRP")
0.123
>>> data_value("RRIRYRPPRLPRPRPRPRMFPRP")
-0.306
>>> data_value("RRIRDRPPRLPRPRPRPLKPPRP")
-0.00274
>>> data_value("RRIRTRPPRLPRPRPRPNMEPRP")
0.343
>>> data_value("RRIRDRPPRLPRPRPRPMNFPRP")
-0.285
>>> data_value("RRIRRRPPRLPRPRPRPSHEPRP")
-0.252
>>> data_value("RRIRCRPPRLPRPRPRPGKLPRP")
-0.111
>>> data_value("RRIRNRPPRLPRPRPRPTQNPRP")
0.332
>>> data_value("RRIRGRPPRLPRPRPRPSVWPRP")
0.622
>>> data_value("RRIRVRPPRLPRPRPRPLYHPRP")
-0.677
>>> data_value("RRIRQRPPRLPRPRPRPWHYPRP")
-0.484
>>> data_value("RRIRERPPRLPRPRPRPSSFPRP")
-0.426
>>> data_value("RRIRWRPPRLPRPRPRPFVHPRP")
-0.423
>>> data_value("RRIRPRPPRLPRPRPRPPLDPRP")
0.517
>>> data_value("RRIRYRPPRLPRPRPRPDYEPRP")
-0.105
>>> data_value("RRIRFRPPRLPRPRPRPWFPPRP")
-0.0773
>>> data_value("RRIRIRPPRLPRPRPRPNNLPRP")
-0.69
>>> data_value("RRIRNRPPRLPRPRPRPKCMPRP")
-0.0394
>>> data_value("RRIRFRPPRLPRPRPRPYQKPRP")
-1.08
>>> data_value("RRIRDRPPRLPRPRPRPRNLPRP")
-0.0438
>>> data_value("RRIRSRPPRLPRPRPRPKEIPRP")
-0.0586
>>> data_value("RRIRLRPPRLPRPRPRPVKHPRP")
-0.131
>>> data_value("RRIRFRPPRLPRPRPRPKIQPRP")
-0.179
>>> data_value("RRIRFRPPRLPRPRPRPPNWPRP")
0.211
>>> data_value("RRIRFRPPRLPRPRPRPNTLPRP")
-0.239
>>> data_value("RRIRDRPPRLPRPRPRPNCMPRP")
0.111
>>> data_value("RRIRWRPPRLPRPRPRPAHKPRP")
0.344
>>> data_value("RRIRARPPRLPRPRPRPIDKPRP")
0.236
>>> data_value("RRIRRRPPRLPRPRPRPYGIPRP")
-0.161
>>> data_value("RRIRKRPPRLPRPRPRPGPEPRP")
1.1

----------
shrunken log2 fold change by entry:
- Tested on: Escherichia coli TOP10
- PROTOCOL DESCRIPTION: shrunken log2 fold change of peptide-encoding DNA abundance (4.5 h post-induction vs induction); higher = less antimicrobial activity (less host growth inhibition)
- CONDITION INFO: time post-induction: 4.5 h; library: site-saturation at positions 5, 18, 19, 20
ATTRIBUTE MEASURED: shrunken log2 fold change

>>> data_value("RRIRSRPPRLPRPRPRPDTCPRP")
-0.225
>>> data_value("RRIRIRPPRLPRPRPRPIAIPRP")
-0.257
>>> data_value("RRIRMRPPRLPRPRPRPSMDPRP")
0.0865
>>> data_value("RRIRARPPRLPRPRPRPCATPRP")
1.06
>>> data_value("RRIRRRPPRLPRPRPRPICKPRP")
0.0422
>>> data_value("RRIRGRPPRLPRPRPRPSFTPRP")
0.079
>>> data_value("RRIRLRPPRLPRPRPRPTHAPRP")
0.029
>>> data_value("RRIRFRPPRLPRPRPRPDCLPRP")
-0.0266
>>> data_value("RRIRDRPPRLPRPRPRPQKFPRP")
-0.0467
>>> data_value("RRIRNRPPRLPRPRPRPLHWPRP")
-0.273
>>> data_value("RRIRDRPPRLPRPRPRPIGIPRP")
0.00854
>>> data_value("RRIRRRPPRLPRPRPRPLGQPRP")
0.00384
>>> data_value("RRIRARPPRLPRPRPRPWCPPRP")
-0.169
>>> data_value("RRIRRRPPRLPRPRPRPDGAPRP")
0.766
>>> data_value("RRIRPRPPRLPRPRPRPFLKPRP")
-0.159
>>> data_value("RRIRSRPPRLPRPRPRPRSYPRP")
-0.066
>>> data_value("RRIRTRPPRLPRPRPRPTQQPRP")
0.175
>>> data_value("RRIRIRPPRLPRPRPRPACQPRP")
0.0224
>>> data_value("RRIRFRPPRLPRPRPRPQSGPRP")
-0.036
>>> data_value("RRIRQRPPRLPRPRPRPLLNPRP")
-0.29
>>> data_value("RRIRNRPPRLPRPRPRPFFPPRP")
-0.122
>>> data_value("RRIRFRPPRLPRPRPRPMNIPRP")
-0.192
>>> data_value("RRIRVRPPRLPRPRPRPHGPPRP")
-0.156
>>> data_value("RRIRRRPPRLPRPRPRPPYSPRP")
0.122
>>> data_value("RRIRIRPPRLPRPRPRPYYHPRP")
-0.839
>>> data_value("RRIRCRPPRLPRPRPRPHTVPRP")
-0.371
>>> data_value("RRIRRRPPRLPRPRPRPSQAPRP")
0.113
>>> data_value("RRIRERPPRLPRPRPRPGLKPRP")
0.131
>>> data_value("RRIRTRPPRLPRPRPRPSKQPRP")
-0.11
>>> data_value("RRIRPRPPRLPRPRPRPGFDPRP")
0.131
>>> data_value("RRIRDRPPRLPRPRPRPDWVPRP")
0.0881
>>> data_value("RRIRHRPPRLPRPRPRPFYCPRP")
-0.946

----------
- Tested on: Escherichia coli TOP10;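 note: peptides expressed intracellularly from a pBAD plasmid library in pooled LB shake-flask culture, induced with 0.3% L-arabinose, DNA abundance read by NGS, three biological replicates, DESeq2 with apeglm shrinkage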
- PROTOCOL DESCRIPTION: shrunken log2 fold change of peptide-encoding DNA abundance (4.5 h post-induction vs induction); higher = less antimicrobial activity (less host growth inhibition)
- CONDITION INFO: time post-induction: 4.5 h; library: site-saturation at positions 5, 18, 19, 20
Readings of shrunken log2 fold change for the listed sequences
ATTRIBUTE MEASURED: shrunken log2 fold change

>>> data_value("RRIRVRPPRLPRPRPRPQEWPRP")
-0.0187
>>> data_value("RRIRTRPPRLPRPRPRPKNFPRP")
-0.0884
>>> data_value("RRIRFRPPRLPRPRPRPGEQPRP")
-0.0185
>>> data_value("RRIRERPPRLPRPRPRPSHLPRP")
-0.188
>>> data_value("RRIRQRPPRLPRPRPRPHMLPRP")
-1.18
>>> data_value("RRIRWRPPRLPRPRPRPHCMPRP")
0.0179
>>> data_value("RRIRDRPPRLPRPRPRPWIVPRP")
0.0145
>>> data_value("RRIRERPPRLPRPRPRPALPPRP")
0.439
>>> data_value("RRIRFRPPRLPRPRPRPYQIPRP")
-0.471
>>> data_value("RRIRERPPRLPRPRPRPRPPPRP")
0.69
>>> data_value("RRIRQRPPRLPRPRPRPKGLPRP")
0.0353
>>> data_value("RRIRLRPPRLPRPRPRPVHLPRP")
-0.0235
>>> data_value("RRIRCRPPRLPRPRPRPWWNPRP")
-0.752
>>> data_value("RRIRGRPPRLPRPRPRPWYLPRP")
-0.575
>>> data_value("RRIRTRPPRLPRPRPRPPGKPRP")
0.129
>>> data_value("RRIRIRPPRLPRPRPRPGHMPRP")
0.0184
>>> data_value("RRIRARPPRLPRPRPRPVAMPRP")
0.383
>>> data_value("RRIRPRPPRLPRPRPRPQRGPRP")
0.251
>>> data_value("RRIRQRPPRLPRPRPRPKNEPRP")
-0.136
>>> data_value("RRIRWRPPRLPRPRPRPAHAPRP")
0.191
>>> data_value("RRIRHRPPRLPRPRPRPARQPRP")
0.14
>>> data_value("RRIRIRPPRLPRPRPRPKHAPRP")
-0.126
>>> data_value("RRIRSRPPRLPRPRPRPVRGPRP")
0.573
>>> data_value("RRIRYRPPRLPRPRPRPMILPRP")
-0.287
>>> data_value("RRIRLRPPRLPRPRPRPGLCPRP")
0.234
>>> data_value("RRIRNRPPRLPRPRPRPKVTPRP")
-0.0149
>>> data_value("RRIRPRPPRLPRPRPRPIPIPRP")
-0.065
>>> data_value("RRIRARPPRLPRPRPRPEMAPRP")
0.739
>>> data_value("RRIRFRPPRLPRPRPRPVPTPRP")
0.113
>>> data_value("RRIRSRPPRLPRPRPRPEVWPRP")
0.779
>>> data_value("RRIRSRPPRLPRPRPRPWVSPRP")
-0.203
>>> data_value("RRIRSRPPRLPRPRPRPSWFPRP")
-0.268

// provenance: the supplement of paper PMC9112550
